Origin of measurements: paper PMC5540273

tested on: ERBB3; settings: concentration: 1 μM, replicates: in singlicate; n = 1;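 also: KINOMEscan kinase panel screen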
endpoint: %Inh
Hey, just the number and the unit after it is fine.

>>> print(df.to_string())
                                   molecule  endpoint  result_value
0  Oc1cc(Nc2ccnc3cc(I)ccc23)ccc1F [GW552771]      %Inh            0%
1  COc1cc(Nc2ncc3c(C)nc(-c4cc5ccccc5[nH]4)n3n2)cc(OC)c1OC [GW869516]      %Inh           26%

Sample "COc1cc2c(cc1OCCN1CCNCC1)ncc1c3ccc(C#N)cc3[nH]c21" ; %Inh observed: 0%
